Tested on: CYP1A2
Assay: Acetaminophen formation from phenacetin in C3H10T1/2
Format: in vitro ADME, mouse
Conditions: mouse, C3H10T1/2 cells
ENDPOINT: Km at 24 h (µM)
API: value field is a number in µM; no unit string.

Can you look up Km at 24 h on CYP1A2 for `CCOc1ccc(NC(C)=O)cc1` ?
247

---

Test: Metabolic clearance
Conditions: human, MCF7 cells, Mean Half-life, MCF7, 1 μM, one-phase exponential decay
ENDPOINT: half-life at 1 μM

Returns the measured half-life at 1 μM for the input compound. Input: O=c1ccc2ccc(O)cc2o1 [7HC, 7-hydroxycoumarin]
~4.83 h

---

Assay: Metabolic clearance
Conditions: human, HepG2 cells, Mean Half-life, HepG2, 1 μM, one-phase exponential decay
ENDPOINT: half-life at 1 μM

Need half-life at 1 μM, item O=c1ccc2ccc(O)cc2o1 [7HC, 7-hydroxycoumarin]
~4.83 h

---

Tested on: CYP1A2
Assay: Acetaminophen formation from phenacetin in HepG2
Format: in vitro ADME, human
Conditions: human, HepG2 cells
ENDPOINT: Km at 24 h (µM)
Entry rule: numbers only, all in µM.

Given the molecule `CCOc1ccc(NC(C)=O)cc1` , what is its reported Km at 24 h?
38.4

---

Assay: Metabolic clearance
Conditions: human, HEK293 cells, Mean Half-life, HEK293, 1 μM, one-phase exponential decay
ENDPOINT: half-life at 1 μM

Which half-life at 1 μM is listed for O=c1ccc2ccc(O)cc2o1 [7HC, 7-hydroxycoumarin] ?
~3.5 h

---

Target: CYP2B6 (Homo sapiens, UniProt P20813)
Sequence (P20813 whole entry): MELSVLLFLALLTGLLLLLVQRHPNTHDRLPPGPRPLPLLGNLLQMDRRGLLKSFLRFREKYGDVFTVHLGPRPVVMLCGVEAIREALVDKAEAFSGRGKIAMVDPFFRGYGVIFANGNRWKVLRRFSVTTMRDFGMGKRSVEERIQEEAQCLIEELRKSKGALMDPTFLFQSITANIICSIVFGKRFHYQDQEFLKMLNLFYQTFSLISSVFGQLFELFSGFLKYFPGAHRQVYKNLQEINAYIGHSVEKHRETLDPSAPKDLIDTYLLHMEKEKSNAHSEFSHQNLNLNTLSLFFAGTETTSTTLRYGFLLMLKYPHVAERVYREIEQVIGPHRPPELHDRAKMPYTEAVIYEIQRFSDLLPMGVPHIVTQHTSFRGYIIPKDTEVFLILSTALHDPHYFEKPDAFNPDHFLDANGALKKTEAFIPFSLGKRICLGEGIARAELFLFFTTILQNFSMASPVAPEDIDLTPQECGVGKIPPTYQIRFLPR
Assay: Hydroxybupropion formation from bupropion in HCT116
Assay type: in vitro ADME
Conditions: HCT116 cells
ENDPOINT: Km at 24 h

# get_value(readout='Km at 24 h', item= CC(NC(C)(C)C)C(=O)c1cccc(Cl)c1 (stereo not shown) )
1910 µM

---

Tested on: CYP3A4/5
Assay: 1-Hydroxymidazolam formation from midazolam in PHH suspensions
Format: in vitro ADME, human
Settings: human
ENDPOINT: Km at 30 min
# answer = value followed by unit

Data request, read-out Km at 30 min, for Cc1ncc2n1-c1ccc(Cl)cc1C(c1ccccc1F)=NC2 [Midazolam, midazolam]
10.7 µM
